system: gel-filtered platelets (thrombin-induced aggregation); experiment: In Vitro Inhibition of Thrombin-Induced Gel-Filtered Platelet Aggregation Assay; format: cell-based; conditions: Homo sapiens, thrombin-induced aggregation of gel-filtered platelets, read-out: Platelet Aggregation IC50
pIC50: −log10 of the molar value.
Quick reference for pIC50 among some compounds

>  <Compound>
N=CN1CCC(CCC(=O)N2CCC[C@@H](C(=O)N[C@@H](CC(=O)O)c3cccnc3)C2)CC1

>  <pIC50>
6.52

$$$$
>  <Compound>
NCCCCCC(=O)N1CCCC(C(=O)NC(CC(=O)O)c2cccnc2)C1 (stereo not shown)

>  <pIC50>
5.80

$$$$
>  <Compound>
O=C(O)C[C@H](NC(=O)[C@@H]1CCCN(C(=O)CCC2CCNCC2)C1)c1cccnc1

>  <pIC50>
7.22

$$$$
>  <Compound>
O=C(NC[C@H](NS(=O)(=O)Cc1ccccc1)C(=O)O)[C@@H]1CCCN(C(=O)CCC2CCNCC2)C1

>  <pIC50>
8.15

$$$$

* * *

target: GPIIb/IIIa (Homo sapiens, UniProt P05106+P08514); assay: In Vitro Solid Phase Purified Glycoprotein IIb/IIIa Binding Assay (fibrinogen binding); conditions: isolated GPIIb/IIIa, biotinylated fibrinogen; read-out: Fibrinogen Binding IC50
Sequence (P08514 32-887 limits assumed): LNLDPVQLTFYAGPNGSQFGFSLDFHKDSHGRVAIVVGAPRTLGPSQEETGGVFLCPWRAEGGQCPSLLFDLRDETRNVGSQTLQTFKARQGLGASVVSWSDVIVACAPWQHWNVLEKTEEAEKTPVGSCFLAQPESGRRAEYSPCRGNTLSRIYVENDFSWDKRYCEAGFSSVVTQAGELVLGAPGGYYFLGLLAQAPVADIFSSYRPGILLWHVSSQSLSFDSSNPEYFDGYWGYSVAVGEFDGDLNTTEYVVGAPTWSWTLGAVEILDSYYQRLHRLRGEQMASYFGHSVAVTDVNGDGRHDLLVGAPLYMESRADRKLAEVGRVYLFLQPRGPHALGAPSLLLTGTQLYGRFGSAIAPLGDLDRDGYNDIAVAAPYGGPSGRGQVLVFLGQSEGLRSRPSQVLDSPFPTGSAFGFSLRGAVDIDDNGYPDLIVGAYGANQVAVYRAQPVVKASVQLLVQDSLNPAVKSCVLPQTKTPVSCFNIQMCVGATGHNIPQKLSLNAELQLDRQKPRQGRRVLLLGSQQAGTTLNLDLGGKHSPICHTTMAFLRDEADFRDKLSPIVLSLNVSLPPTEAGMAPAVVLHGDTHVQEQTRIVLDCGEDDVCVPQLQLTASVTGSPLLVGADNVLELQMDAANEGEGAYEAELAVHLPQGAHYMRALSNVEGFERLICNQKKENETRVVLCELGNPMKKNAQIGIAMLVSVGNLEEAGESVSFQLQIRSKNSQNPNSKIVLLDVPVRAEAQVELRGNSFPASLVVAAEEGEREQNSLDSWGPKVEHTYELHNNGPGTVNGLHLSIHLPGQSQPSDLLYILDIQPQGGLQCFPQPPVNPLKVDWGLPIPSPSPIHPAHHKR
Sequence (P08514 891-1039 limits assumed): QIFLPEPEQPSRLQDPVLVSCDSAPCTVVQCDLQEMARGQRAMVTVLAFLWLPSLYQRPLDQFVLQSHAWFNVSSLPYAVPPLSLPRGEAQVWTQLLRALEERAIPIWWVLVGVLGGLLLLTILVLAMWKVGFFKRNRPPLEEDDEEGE
Sequence (P05106 27-788): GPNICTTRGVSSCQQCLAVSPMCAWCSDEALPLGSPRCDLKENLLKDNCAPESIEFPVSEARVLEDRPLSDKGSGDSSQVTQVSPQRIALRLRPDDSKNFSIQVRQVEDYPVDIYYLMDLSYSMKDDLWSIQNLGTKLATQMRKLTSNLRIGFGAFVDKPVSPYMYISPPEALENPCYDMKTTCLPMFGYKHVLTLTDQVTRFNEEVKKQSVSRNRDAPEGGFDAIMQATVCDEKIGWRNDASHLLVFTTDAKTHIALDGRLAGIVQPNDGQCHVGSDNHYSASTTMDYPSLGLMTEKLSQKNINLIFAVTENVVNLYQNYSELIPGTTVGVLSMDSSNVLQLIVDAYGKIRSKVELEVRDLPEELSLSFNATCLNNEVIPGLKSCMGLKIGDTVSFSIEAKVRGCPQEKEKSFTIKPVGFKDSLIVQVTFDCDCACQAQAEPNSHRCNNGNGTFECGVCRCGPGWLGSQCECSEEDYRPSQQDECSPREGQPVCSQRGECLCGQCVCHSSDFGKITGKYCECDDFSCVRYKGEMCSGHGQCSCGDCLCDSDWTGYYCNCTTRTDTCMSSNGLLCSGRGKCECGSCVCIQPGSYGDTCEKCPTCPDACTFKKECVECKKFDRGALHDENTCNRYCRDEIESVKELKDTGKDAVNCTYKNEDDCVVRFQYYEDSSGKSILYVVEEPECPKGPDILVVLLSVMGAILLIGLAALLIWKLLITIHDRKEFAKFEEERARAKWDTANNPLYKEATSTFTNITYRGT
pIC50: −log10 of the molar value.
Quick reference for pIC50 among some molecules
Measurement Kind: pIC50

>  <Molecule>
O=C(NC[C@@H]1NC(=O)N(Cc2ccccc2)C1=O)[C@@H]1CCCN(C(=O)CCC2CCNCC2)C1 [Compound 29]

>  <Numeric Result>
7.17

$$$$
>  <Molecule>
O=C(O)C[C@H](NC(=O)[C@@H]1CCCN(C(=O)CCC2CCNCC2)C1)c1cnc2ccccc2c1 [Compound 18]

>  <Numeric Result>
9.70

$$$$
>  <Molecule>
O=C(O)C[C@H](NC(=O)[C@@H]1CCCN(C(=O)CCC2CCNCC2)C1)c1ccc2c(c1)OCO2 [Compound 16]

>  <Numeric Result>
9.30

$$$$
>  <Molecule>
COc1cc(NC(=O)N[C@@H](CNC(=O)[C@@H]2CCCN(C(=O)CCC3CCNCC3)C2)C(=O)O)cc(OC)c1 [Compound 26]

>  <Numeric Result>
9.52

$$$$
>  <Molecule>
N=CN1CCC(CCC(=O)N2CCC[C@@H](C(=O)N[C@@H](CC(=O)O)c3cccnc3)C2)CC1 [Compound 33]

>  <Numeric Result>
9.15

$$$$
>  <Molecule>
O=C(O)C[C@H](NC(=O)C1CCCN(CCCC2CCNCC2)C1)c1ccc2c(c1)OCO2 (stereo partly shown) [Compound 20]

>  <Numeric Result>
9.15

$$$$
>  <Molecule>
O=C(O)C[C@H](NC(=O)[C@@H]1CCCN(C(=O)CCC2CCNCC2)C1)c1cccnc1 [Compound 21]

>  <Numeric Result>
9.30

$$$$
>  <Molecule>
O=C(Nc1ccc2ccccc2c1)N[C@@H](CNC(=O)[C@@H]1CCCN(C(=O)CCC2CCNCC2)C1)C(=O)O [Compound 28]

>  <Numeric Result>
9.70

$$$$
>  <Molecule>
COc1cccc(NC(=O)N[C@@H](CNC(=O)[C@@H]2CCCN(C(=O)CCC3CCNCC3)C2)C(=O)O)c1 [Compound 22]

>  <Numeric Result>
9.15

$$$$
>  <Molecule>
O=C(NCCc1ccccc1)N[C@@H](CNC(=O)[C@@H]1CCCN(C(=O)CCC2CCNCC2)C1)C(=O)O [Compound 30]

>  <Numeric Result>
9.10

$$$$
>  <Molecule>
O=C(O)C[C@H](NC(=O)[C@@H]1CCCN(C(=O)N2CCC(C3CCNCC3)CC2)C1)c1cccnc1 [Compound 27]

>  <Numeric Result>
9.22

$$$$
>  <Molecule>
Cc1ccc([C@H](CC(=O)O)NC(=O)[C@@H]2CCCN(C(=O)CCC3CCNCC3)C2)cn1 [Compound 31]

>  <Numeric Result>
9.52

$$$$
>  <Molecule>
O=C(NC[C@H](NS(=O)(=O)Cc1ccccc1)C(=O)O)[C@@H]1CCCN(C(=O)CCC2CCNCC2)C1 [Compound 25]

>  <Numeric Result>
9.52

$$$$
>  <Molecule>
O=C(N[C@@H](CNC(=O)[C@@H]1CCCN(C(=O)CCC2CCNCC2)C1)C(=O)O)OCc1ccccc1 [Compound 23]

>  <Numeric Result>
9.52

$$$$
>  <Molecule>
O=C(O)C(O)CNC(=O)[C@@H]1CCCN(C(=O)CCC2CCNCC2)C1 (single isomer, unassigned) [Compound 11]

>  <Numeric Result>
8.40

$$$$
>  <Molecule>
O=C(O)C[C@H](NC(=O)[C@@H]1CCCN(C(=O)CCC2CCNCC2)C1)c1cncc(Br)c1 [Compound 32]

>  <Numeric Result>
9.40

$$$$
